Target: UniProt P00533
Sequence (P00533 whole entry): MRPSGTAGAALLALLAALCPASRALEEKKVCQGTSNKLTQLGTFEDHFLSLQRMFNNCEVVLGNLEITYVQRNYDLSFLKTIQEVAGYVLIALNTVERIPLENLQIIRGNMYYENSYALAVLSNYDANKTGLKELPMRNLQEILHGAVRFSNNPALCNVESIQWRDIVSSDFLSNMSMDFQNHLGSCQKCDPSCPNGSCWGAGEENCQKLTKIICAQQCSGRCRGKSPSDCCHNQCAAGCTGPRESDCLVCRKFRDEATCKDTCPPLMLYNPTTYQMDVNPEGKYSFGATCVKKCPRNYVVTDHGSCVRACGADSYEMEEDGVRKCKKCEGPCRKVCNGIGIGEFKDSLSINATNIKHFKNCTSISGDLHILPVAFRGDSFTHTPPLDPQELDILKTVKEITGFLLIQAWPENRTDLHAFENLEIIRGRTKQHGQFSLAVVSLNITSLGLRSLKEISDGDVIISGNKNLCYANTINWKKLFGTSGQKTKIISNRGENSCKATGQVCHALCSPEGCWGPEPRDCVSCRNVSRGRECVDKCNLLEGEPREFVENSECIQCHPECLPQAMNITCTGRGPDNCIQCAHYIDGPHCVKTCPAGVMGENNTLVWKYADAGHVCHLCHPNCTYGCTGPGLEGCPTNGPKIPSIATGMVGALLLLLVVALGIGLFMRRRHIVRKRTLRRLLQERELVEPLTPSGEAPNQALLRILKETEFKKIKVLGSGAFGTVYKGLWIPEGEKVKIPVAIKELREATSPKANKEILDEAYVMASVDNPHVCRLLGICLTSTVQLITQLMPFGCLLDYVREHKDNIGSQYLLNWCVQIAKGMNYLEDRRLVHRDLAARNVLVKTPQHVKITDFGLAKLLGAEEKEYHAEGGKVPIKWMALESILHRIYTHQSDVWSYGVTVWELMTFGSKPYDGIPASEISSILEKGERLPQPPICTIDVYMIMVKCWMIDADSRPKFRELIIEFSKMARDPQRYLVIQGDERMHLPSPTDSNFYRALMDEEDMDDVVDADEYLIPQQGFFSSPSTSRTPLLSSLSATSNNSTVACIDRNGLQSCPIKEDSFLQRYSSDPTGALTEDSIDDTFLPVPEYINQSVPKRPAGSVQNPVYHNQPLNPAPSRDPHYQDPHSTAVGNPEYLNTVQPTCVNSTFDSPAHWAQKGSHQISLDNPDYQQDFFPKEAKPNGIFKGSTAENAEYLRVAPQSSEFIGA
pIC50: −log10 of the molar value.
ENDPOINT: pIC50

Examples from the recorded data:
INSERT INTO assay_data (compound, endpoint, recorded_value) VALUES
  ('CS(=O)(=O)CCNCc1ccc(-c2ccc3ncnc(Nc4ccc(OCc5ccccc5)c(Cl)c4)c3c2)o1', 'pIC50', 7.74),
  ('CS(=O)(=O)CCNCc1ccc(-c2ccc3ncnc(Nc4ccc(OCc5ccccc5)cc4)c3c2)o1', 'pIC50', 7.57),
  ('CS(=O)(=O)CCN(CC#N)Cc1ccc(-c2ccc3ncnc(Nc4ccc(OCc5cccc(F)c5)c(Cl)c4)c3c2)o1 [GW616030X]', 'pIC50', 7.57);

1: O=S(=O)(CCOCc1ccc(-c2ccc3ncnc(Nc4ccc(OCc5cccc(F)c5)c(Cl)c4)c3c2)o1)c1ccccc1 [GW615311X]
2: [O-][S+]1CCN(Cc2ccc(-c3ccc4ncnc(Nc5ccc(OCc6ccccc6)c(F)c5)c4c3)o2)CC1
Please indicate which has the smaller reported pIC50: 1 , or 2 . Label of pick, please.
1
(1: 7.60, 2: 7.80)

a: CCCS(=O)(=O)CCNCc1ccc(-c2ccc3ncnc(Nc4ccc(OCc5cccc(F)c5)c(Cl)c4)c3c2)o1
b: [O-][S+]1CCN(Cc2ccc(-c3ccc4ncnc(Nc5ccc(OCc6cccc(F)c6)c(C(F)(F)F)c5)c4c3)o2)CC1
Which numeric pIC50 is bigger, that of a or that of b ? Label of pick, please.
a

A: [O-][S+]1CCN(Cc2ccc(-c3ccc4ncnc(Nc5ccc(OCc6cccc(F)c6)c(Cl)c5)c4c3)o2)CC1
B: CS(=O)(=O)CCNCc1ccc(-c2ccc3ncnc(Nc4ccc(OCc5cccc(C(F)(F)F)c5)cc4)c3c2)o1
Please indicate which has the smaller reported pIC50: A , or B . Label of pick, please.
B

P: CS(=O)(=O)CCNCc1ccc(-c2ccc3ncnc(Nc4ccc(OCc5cccc(F)c5)c(C(F)(F)F)c4)c3c2)o1 [GW576484X]
Q: [O-][S+]1CCN(Cc2ccc(-c3ccc4ncnc(Nc5ccc(OCc6ccccc6)c(Cl)c5)c4c3)o2)CC1
Please indicate which has the smaller reported pIC50: P , or Q . Label of pick, please.
P
(P: 7.10, Q: 7.92)

====

System: HFF
Test: Inhibition of HFF cell growth
Settings: Homo sapiens
ENDPOINT: pIC50
Remember, pIC50 is on a log scale: it is -log10 of the molar concentration.

INSERT INTO assay_data (compound, assay_target, recorded_value) VALUES
  ('CS(=O)(=O)CCNCc1ccc(-c2ccc3ncnc(Nc4ccc(OCc5cccc(F)c5)c(Cl)c4)c3c2)o1 [LAPATINIB]', 'HFF', 5.00);

Then there is this compound:
State its pIC50: [O-][S+]1CCN(Cc2ccc(-c3ccc4ncnc(Nc5ccc(OCc6cccc(F)c6)c(Cl)c5)c4c3)o2)CC1
5.09

====

System: HN5
Experiment: cells
Conditions: Homo sapiens, HN5, 72 h
Description: Inhibition of HN5 cell growth after 72 hrs
pIC50: −log10 of the molar value.
ENDPOINT: pIC50

INSERT INTO assay_data (compound, recorded_value) VALUES
  ('CS(=O)(=O)CCNCc1ccc(-c2ccc3ncnc(Nc4ccc(OCc5cccc(F)c5)c(C(F)(F)F)c4)c3c2)o1 [GW576484X]', 5.71),
  ('CS(=O)(=O)CCNCc1ccc(-c2ccc3ncnc(Nc4ccc(OCc5cccc(C(F)(F)F)c5)cc4)c3c2)o1', 5.16),
  ('CCCS(=O)(=O)CCNCc1ccc(-c2ccc3ncnc(Nc4ccc(OCc5cccc(F)c5)c(Cl)c4)c3c2)o1', 5.80);

a: [O-][S+]1CCN(Cc2ccc(-c3ccc4ncnc(Nc5ccc(OCc6ccccc6)c(F)c5)c4c3)o2)CC1
b: [O-][S+]1CCN(Cc2ccc(-c3ccc4ncnc(Nc5ccc(OCc6cccc(F)c6)c(Cl)c5)c4c3)o2)CC1
Which numeric pIC50 is bigger, that of a or that of b ? Label of pick, please.
b
(b: 7.22, a: 6.00)

====

Property: pIC50; scope: individual compounds
Tested on: HFF
Experiment: Inhibition of HFF cell growth
Conditions: Homo sapiens
pIC50: −log10 of the molar value.

INSERT INTO measurements (compound, assay_target, recorded_value) VALUES
  ('CS(=O)(=O)CCN(CC#N)Cc1ccc(-c2ccc3ncnc(Nc4ccc(OCc5cccc(F)c5)c(Cl)c4)c3c2)o1 [GW616030X]', 'HFF', '< 4.52'),
  ('CC(C)S(=O)(=O)CCNCc1ccc(-c2ccc3ncnc(Nc4ccc(OCc5cccc(F)c5)c(Cl)c4)c3c2)o1', 'HFF', '< 4.52');

Then there is this compound:
Provide HFF pIC50 reading for CS(=O)(=O)CCOCc1ccc(-c2ccc3ncnc(Nc4ccc(OCc5cccc(F)c5)c(Cl)c4)c3c2)o1 .
< 4.52

These data points were gathered from ChEMBL document CHEMBL1149340.
